target or test system: r3β-HSD1 (Rattus norvegicus, UniProt P22071)
Sequence (P22071 whole entry): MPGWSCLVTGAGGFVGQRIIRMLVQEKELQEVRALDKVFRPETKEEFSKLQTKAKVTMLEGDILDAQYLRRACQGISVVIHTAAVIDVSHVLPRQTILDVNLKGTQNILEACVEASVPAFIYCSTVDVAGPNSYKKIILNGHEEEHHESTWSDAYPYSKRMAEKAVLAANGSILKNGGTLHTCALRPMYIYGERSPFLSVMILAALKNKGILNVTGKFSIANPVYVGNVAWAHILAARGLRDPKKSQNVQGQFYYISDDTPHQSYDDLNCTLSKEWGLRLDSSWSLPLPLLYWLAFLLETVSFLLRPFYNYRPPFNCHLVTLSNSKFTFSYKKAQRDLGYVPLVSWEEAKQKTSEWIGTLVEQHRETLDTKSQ
pKi: −log10 of the molar value.
The entries below come with measured pKi values attached.
reported metric: pKi

structure notation | readout value
COc1cc(/C=C/C(O)=C/C(=O)/C=C/c2ccc(O)cc2)ccc1O | 5.66
COc1cc(/C=C/C(=O)CC(=O)/C=C/c2ccc(O)c(OC)c2)ccc1O | 5.38
O=C(/C=C/c1ccc(O)cc1)CC(=O)/C=C/c1ccc(O)cc1 | 5.81

---

target or test system: r3β-HSD1 (Rattus norvegicus)
method notes: r3β-HSD1 activity, conversion of P5 to P4 in rat testicular microsome
Type: biochemical
measurement setup: 100 µM chemical, relative to DMSO control

structure notation | Residual r3β-HSD1 activity
COc1cc(/C=C/C(O)=C/C(=O)/C=C/c2ccc(O)cc2)ccc1O | < 20 % of the control
O=C(/C=C/c1ccc(O)cc1)CC(=O)/C=C/c1ccc(O)cc1 | < 20 % of the control
COc1cc(/C=C/C(=O)CC(=O)/C=C/c2ccc(O)c(OC)c2)ccc1O | < 20 % of the control

---

target or test system: h3β-HSD2 (Homo sapiens)
Sequence (P26439 1-372): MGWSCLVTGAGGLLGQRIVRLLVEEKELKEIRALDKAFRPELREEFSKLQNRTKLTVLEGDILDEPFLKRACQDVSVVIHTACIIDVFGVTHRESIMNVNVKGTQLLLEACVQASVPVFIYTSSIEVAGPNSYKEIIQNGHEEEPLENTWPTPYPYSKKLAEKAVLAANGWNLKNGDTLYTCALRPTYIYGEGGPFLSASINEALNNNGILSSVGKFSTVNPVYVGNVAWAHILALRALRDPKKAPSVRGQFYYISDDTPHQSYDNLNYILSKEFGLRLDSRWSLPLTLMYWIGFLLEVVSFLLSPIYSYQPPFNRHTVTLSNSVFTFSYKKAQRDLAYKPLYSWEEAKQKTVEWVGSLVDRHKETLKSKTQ
method notes: h3β-HSD2 activity, conversion of P5 to P4 in KGN cell homogenate
Type: biochemical
measurement setup: 100 µM chemical, relative to DMSO control
Reported Residual h3β-HSD2 activity values for the following compounds.
reported metric: Residual h3β-HSD2 activity

compound | readout value
COc1cc(CCC(=O)CC(=O)CCc2ccc(O)c(OC)c2)ccc1O [THC, tetrahydrocurcumin] | ≥ 50 % of the control
COc1cc(/C=C/C(=O)CC(=O)/C=C/c2ccc(O)c(OC)c2)ccc1O | < 25 % of the control
COc1cc(CCC(O)CC(O)CCc2ccc(O)c(OC)c2)ccc1O (centres unmarked) [OHC, octahydrocurcumin] | ≥ 50 % of the control
COc1cc(/C=C/C(O)=C/C(=O)/C=C/c2ccc(O)cc2)ccc1O | < 25 % of the control
O=C(/C=C/c1ccc(O)cc1)CC(=O)/C=C/c1ccc(O)cc1 | < 25 % of the control

---

Listed here: compounds with reported pIC50 for r3β-HSD1 (Rattus norvegicus, UniProt P22071).
pIC50: −log10 of the molar value.
reported metric: pIC50

compound | reported metric | readout value
COc1cc(/C=C/C(=O)CC(=O)/C=C/c2ccc(O)c(OC)c2)ccc1O | pIC50 | 5.39
COc1cc(/C=C/C(O)=C/C(=O)/C=C/c2ccc(O)cc2)ccc1O | pIC50 | 5.67
O=C(/C=C/c1ccc(O)cc1)CC(=O)/C=C/c1ccc(O)cc1 | pIC50 | 5.91
COc1cc(CCC(=O)CC(=O)CCc2ccc(O)c(OC)c2)ccc1O [THC, tetrahydrocurcumin] | pIC50 | 3.99

---

target or test system: h3β-HSD2 (Homo sapiens, UniProt P26439)
method notes: h3β-HSD2 activity, conversion of P5 to P4 in KGN cell homogenate
measurement setup: IC50, human 3β-HSD2, KGN cell homogenate, 0.2 µM P5, 0.2 mM NAD+, 30 min
Here, each record is paired with measured IC50 data.
reported metric: IC50 (µM)

molecule | readout value
COc1cc(CCC(=O)CC(=O)CCc2ccc(O)c(OC)c2)ccc1O [THC, tetrahydrocurcumin] | 109
COc1cc(/C=C/C(O)=C/C(=O)/C=C/c2ccc(O)cc2)ccc1O | 3.27
O=C(/C=C/c1ccc(O)cc1)CC(=O)/C=C/c1ccc(O)cc1 | 1.68

---

target or test system: h3β-HSD2 (Homo sapiens, UniProt P26439)
method notes: h3β-HSD2 activity, conversion of P5 to P4 in KGN cell homogenate

compound | Ki [µM]
O=C(/C=C/c1ccc(O)cc1)CC(=O)/C=C/c1ccc(O)cc1 [BDMC, bisdemethoxycurcumin] | 1.12
COc1cc(/C=C/C(O)=C/C(=O)/C=C/c2ccc(O)cc2)ccc1O [DMC, demethoxycurcumin] | 3.85
